molecular target: human activated kallikrein enzyme (Homo sapiens, UniProt P03952); test: Inhibition of activated plasma kallikrein, fluorogenic peptide substrate (PFR-AMC) assay, 500 pM enzyme format; conditions: 500 pM activated kallikrein, 300 uM PFR-AMC, 30 min preincubation, 10 min reaction, room temperature; read-out: Primary Dose Response Assay: Average EC50
Sequence (P03952 391-638 limits assumed): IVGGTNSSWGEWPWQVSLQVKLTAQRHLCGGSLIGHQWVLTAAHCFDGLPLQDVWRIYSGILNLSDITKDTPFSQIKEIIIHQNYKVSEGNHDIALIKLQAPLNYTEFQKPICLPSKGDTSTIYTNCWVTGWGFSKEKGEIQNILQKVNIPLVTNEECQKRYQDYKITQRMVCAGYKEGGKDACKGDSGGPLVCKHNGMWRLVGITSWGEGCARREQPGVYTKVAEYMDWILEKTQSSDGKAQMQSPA
Sequence (P03952 20-390 partner limits assumed): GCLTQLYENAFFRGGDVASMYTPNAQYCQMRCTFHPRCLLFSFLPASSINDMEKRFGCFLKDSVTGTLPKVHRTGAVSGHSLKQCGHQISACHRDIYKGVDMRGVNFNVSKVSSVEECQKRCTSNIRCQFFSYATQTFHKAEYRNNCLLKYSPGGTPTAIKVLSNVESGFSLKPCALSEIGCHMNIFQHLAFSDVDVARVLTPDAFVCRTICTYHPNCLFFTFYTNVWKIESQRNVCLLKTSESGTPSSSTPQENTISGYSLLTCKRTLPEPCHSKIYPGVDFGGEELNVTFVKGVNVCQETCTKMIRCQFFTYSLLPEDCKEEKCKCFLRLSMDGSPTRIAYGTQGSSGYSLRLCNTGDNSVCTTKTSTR
pEC50: −log10 of the molar value.
value_type: pEC50

Ask: Quick one: pEC50 for Cc1ccnc([C@H]2C[C@@H]2c2cc(O)c3ccc(N4C[C@@H](O)C[C@@H]4c4cn5cc(C6CC6)ccc5n4)cc3n2)n1 (relative stereo) [Example 54] ?
Reply: 8.00 to 9.00

Ask: Quick one: Cc1ccnc([C@H]2C[C@@H]2c2cc(N3CC4(COC4)C3)c3ccc(N(C)Cc4cn5cc(C6CC6)cc(N6CC(=O)N(C)C6=O)c5n4)cc3n2)n1 [Example 98]
Reply: ≥ 9.00

Ask: Also Cc1ccnc([C@H]2C[C@@H]2c2cc(OC3CCN(C)CC3)c3ccc(NCc4cn5cc(C6CC6)cc(N6CC(=O)N(C)C6=O)c5n4)cc3n2)n1 (racemic) [Example 35] ?
Reply: ≥ 9.00

====

Provide the recorded EC50 for the entries that follow.
Biological target: human activated kallikrein enzyme (Homo sapiens)
Assay: Inhibition of activated plasma kallikrein, fluorogenic peptide substrate (PFR-AMC) assay, 500 pM enzyme format
Details: 500 pM activated kallikrein, 300 uM PFR-AMC, 30 min preincubation, 10 min reaction, room temperature; read-out: Primary Dose Response Assay: Average EC50
Protocol: Compounds were evaluated for inhibition of the human activated kallikrein enzyme in two formats of an assay employing a fluorogenic peptide substrate. […] After initiation with substrate, reactions were incubated for 10 min at room temperature and fluorescence emission at 460 nm from 380 nm excitation measured with a microplate reader. […]

Ask: Reported EC50, compound Cc1ccnc([C@H]2C[C@@H]2C2=NS(=O)(=O)c3ccc(OCc4cn5cc(C6CC6)ccc5n4)cc3N2)n1 [Example 91] : ____
Reply: ≤ 1 nM

Ask: Check COc1cc([C@H]2C[C@@H]2c2cccc(Cl)c2)nc2cc(N(Cc3cn4cc(C5CC5)ccc4n3)C(=O)OC(C)(C)C)ccc12 (racemic) too.
Reply: > 6500 nM

Ask: Ok, now CN1C(=O)CN(c2cc(C3CC3)cn3cc(CNc4ccc5c(=O)cc([C@H]6C[C@@H]6c6cccc(Cl)c6)[nH]c5c4)nc23)C1=O (racemic)
Reply: 1 to 10 nM

Ask: Consider next the compound COCc1cc([C@H]2C[C@@H]2c2nccc(C)n2)nc2cc(NCc3cn4cc(C5CC5)cc(N5CC(=O)N(C)C5=O)c4n3)ccc12 (racemic) in the same way.
Reply: ≤ 1 nM

Ask: Follow-up item: Clc1cccc([C@H]2C[C@@H]2c2nc3ncncc3n2Cc2cn3cc(C4CC4)ccc3n2)c1
Reply: > 6500 nM

Ask: Likewise for Cc1ccnc([C@H]2C[C@@H]2C2=NS(=O)(=O)c3cc4c(cc3N2)N(Cc2cn3cc(C5CC5)ccc3n2)CCO4)n1 ?
Reply: ≤ 1 nM

Ask: What would you report for Cc1ccnc([C@H]2C[C@@H]2c2cc(=O)c3ccc(NCc4cn5cc(C6CC6)cc(N6CC(=O)N(C)C6=O)c5n4)cc3[nH]2)n1 (racemic) ?
Reply: ≤ 1 nM

Ask: Note, next up: Cc1ccnc([C@H]2C[C@@H]2C2=NS(=O)(=O)c3ccc(NCc4cn5cc(C6CC6)ccc5n4)cc3N2)n1 (single isomer, unassigned) [Example 65]
Reply: ≤ 1 nM

Ask: Follow-up item: Cc1ccnc([C@H]2C[C@@H]2c2ccc3c(C#N)cc(NCc4cn5cc(C6CC6)cc(N6CC(=O)N(C)C6=O)c5n4)cc3n2)n1 (racemic)
Reply: 1 to 10 nM

Ask: Also, COc1cc([C@H]2C[C@@H]2c2nccc(C)n2)nc2cc(N3C[C@@H](O)C[C@@H]3c3cn4cc(C5CC5)ccc4n3)ccc12 (relative stereo) please.
Reply: 1 to 10 nM

Ask: Entry to check: Cc1ccnc([C@H]2C[C@@H]2c2cc(N(C)CC(C)(C)O)c3ccc(NCc4cn5cc(C6CC6)cc(N6CC(=O)N(C)C6=O)c5n4)cc3n2)n1
Reply: ≤ 1 nM

Ask: How about this compound: Clc1cccc([C@H]2C[C@@H]2c2nc3cccc(NCc4cn5cc(C6CC6)ccc5n4)c3[nH]2)c1
Reply: > 6500 nM

Ask: Would you kindly repeat that for Cc1ccnc([C@H]2C[C@@H]2c2nc3cc(NCc4cn5cc(C6CC6)ccc5n4)ccc3c(=O)[nH]2)n1 (relative stereo) ?
Reply: 1 to 10 nM

Ask: # iterate: Cc1ccnc([C@H]2C[C@@H]2c2cc(N3CC4(COC4)C3)c3ccc(NCc4cc5cc(C6CC6)cc(N6CC(=O)N(C)C6=O)n5n4)cc3n2)n1
Reply: ≤ 1 nM

Ask: Also check Cc1ccnc([C@H]2C[C@@H]2c2cc(CO)c3ccc(NCc4cn5cc(C6CC6)cc(N6CC(=O)N(C)C6=O)c5n4)cc3n2)n1 (racemic)
Reply: ≤ 1 nM

Ask: Same read-out for Cc1ccnc([C@H]2C[C@@H]2c2nc3cc(NCc4cn5cc(C6CC6)cc(N6CC(=O)N(C)C6=O)c5n4)ncc3c(=O)[nH]2)n1 (racemic) ?
Reply: ≤ 1 nM

Ask: What about this compound? O=c1[nH]c([C@H]2C[C@@H]2c2cccc(Cl)c2)nc2cc(NCc3cn4cc(C5CC5)ccc4n3)ncc12
Reply: 10 to 100 nM

Ask: Likewise for Cc1ccnc([C@H]2C[C@@H]2c2cc(-c3cnn(C)c3)c3ccc(NCc4cn5cc(C6CC6)cc(N6CC(=O)N(C)C6=O)c5n4)cc3n2)n1 ?
Reply: ≤ 1 nM

Ask: Here is the next compound: Cc1ccnc([C@H]2C[C@@H]2c2cc(NCC(C)(C)O)c3ccc(NCc4cn5cc(C6CC6)cc(N6CC(=O)N(C)C6=O)c5n4)cc3n2)n1
Reply: ≤ 1 nM

Ask: Okay, and Cc1ccnc([C@H]2C[C@@H]2c2cc(N(C)C)c3ccc(NCc4cn5cc(C6CC6)cc(N6CC(=O)N(C)C6=O)c5n4)cc3n2)n1 (racemic) ?
Reply: ≤ 1 nM
